These entries and their values trace back to patent US11008314B2.

Measured IC50 accompanies every entry in the list below.
Biological target: JAK3 (Homo sapiens (Human), UniProt P52333)
Sequence (P52333 whole entry, species assumed): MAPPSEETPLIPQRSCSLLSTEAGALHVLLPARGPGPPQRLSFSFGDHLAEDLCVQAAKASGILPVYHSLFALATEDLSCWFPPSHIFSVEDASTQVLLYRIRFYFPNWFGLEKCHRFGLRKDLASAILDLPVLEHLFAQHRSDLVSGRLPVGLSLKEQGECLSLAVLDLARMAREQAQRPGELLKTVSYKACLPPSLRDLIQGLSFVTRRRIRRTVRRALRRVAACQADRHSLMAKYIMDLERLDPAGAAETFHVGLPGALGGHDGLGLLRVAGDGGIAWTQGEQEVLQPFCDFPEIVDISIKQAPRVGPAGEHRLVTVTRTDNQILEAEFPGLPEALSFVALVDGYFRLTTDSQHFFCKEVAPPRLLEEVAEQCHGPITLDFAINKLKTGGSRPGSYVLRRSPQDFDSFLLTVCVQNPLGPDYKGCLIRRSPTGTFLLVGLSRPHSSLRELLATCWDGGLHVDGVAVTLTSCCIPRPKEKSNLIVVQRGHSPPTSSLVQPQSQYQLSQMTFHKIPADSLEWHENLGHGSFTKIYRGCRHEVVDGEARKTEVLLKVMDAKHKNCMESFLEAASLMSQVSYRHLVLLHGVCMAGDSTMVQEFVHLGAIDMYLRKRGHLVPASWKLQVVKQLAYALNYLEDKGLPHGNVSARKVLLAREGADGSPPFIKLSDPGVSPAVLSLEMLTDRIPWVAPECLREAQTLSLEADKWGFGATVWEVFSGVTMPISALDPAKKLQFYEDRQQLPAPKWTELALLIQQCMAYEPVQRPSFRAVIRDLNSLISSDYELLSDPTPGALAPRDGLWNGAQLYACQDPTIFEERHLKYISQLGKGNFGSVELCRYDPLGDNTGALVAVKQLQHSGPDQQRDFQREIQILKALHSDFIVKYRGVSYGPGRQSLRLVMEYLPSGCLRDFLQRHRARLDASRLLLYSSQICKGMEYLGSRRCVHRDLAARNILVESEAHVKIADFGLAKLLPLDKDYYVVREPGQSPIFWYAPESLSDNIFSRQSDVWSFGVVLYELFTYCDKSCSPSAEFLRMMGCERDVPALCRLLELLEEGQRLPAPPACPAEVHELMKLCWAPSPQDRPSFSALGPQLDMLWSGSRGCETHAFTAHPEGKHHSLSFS
Test: IC50 against JAK3
Type: biochemical

Some compounds with known IC50 results, for comparison:
C=CC(=O)N1CCN(C(=O)c2cc(Sc3cnc(NC(=O)c4cnsc4)s3)c(C)cc2OC)CC1; 100 to 1000 nM
C=CC(=O)N1CCCN(C(=O)c2cc(C)c(C)c(Sc3cnc(NC(=O)C4CC4)s3)c2)C[C@H]1C; ≥ 10000 nM
C=CC(=O)N1CCN(C(=O)c2cc(Sc3cnc(NC(=O)c4ccsc4)s3)c(C)cc2OC)C(C)(C)C1; < 10 nM
C=CC(=O)N1CCN(C(=O)c2cc(Sc3cnc(NC4CC4)s3)c(C)cc2OC)CC1; 1000 to 10000 nM
C=CC(=O)N1CCN(C(=O)c2cc(Sc3cnc(NC(=O)c4cccc(CN(C)C)c4)s3)c(C)cc2OC)C[C@H]1CC; 1000 to 10000 nM
C=CC(=O)N1[C@@H]2CC[C@H]1CN(C(=O)c1cc(Sc3cnc(NC(C)=O)s3)c(C)cc1OC)C2; 100 to 1000 nM

Proceeding to the next compound to report its IC50.
Query: I'd like to know its IC50. The compound in question is C=CC(=O)N1CCN(C(=O)c2cc(Sc3cnc(NC(=O)c4ccc(N5CCN(C(=O)CCOCCOCCOCCOCCNC(=O)CCCCC6SCC7NC(=O)NC76)CC5)cc4)s3)c(C)cc2OC)CC1 (centres unmarked)
Result: 10 to 100 nM
